- target_system: NLRP3 (Homo sapiens, UniProt Q96P20)
- Sequence (Q96P20 whole entry): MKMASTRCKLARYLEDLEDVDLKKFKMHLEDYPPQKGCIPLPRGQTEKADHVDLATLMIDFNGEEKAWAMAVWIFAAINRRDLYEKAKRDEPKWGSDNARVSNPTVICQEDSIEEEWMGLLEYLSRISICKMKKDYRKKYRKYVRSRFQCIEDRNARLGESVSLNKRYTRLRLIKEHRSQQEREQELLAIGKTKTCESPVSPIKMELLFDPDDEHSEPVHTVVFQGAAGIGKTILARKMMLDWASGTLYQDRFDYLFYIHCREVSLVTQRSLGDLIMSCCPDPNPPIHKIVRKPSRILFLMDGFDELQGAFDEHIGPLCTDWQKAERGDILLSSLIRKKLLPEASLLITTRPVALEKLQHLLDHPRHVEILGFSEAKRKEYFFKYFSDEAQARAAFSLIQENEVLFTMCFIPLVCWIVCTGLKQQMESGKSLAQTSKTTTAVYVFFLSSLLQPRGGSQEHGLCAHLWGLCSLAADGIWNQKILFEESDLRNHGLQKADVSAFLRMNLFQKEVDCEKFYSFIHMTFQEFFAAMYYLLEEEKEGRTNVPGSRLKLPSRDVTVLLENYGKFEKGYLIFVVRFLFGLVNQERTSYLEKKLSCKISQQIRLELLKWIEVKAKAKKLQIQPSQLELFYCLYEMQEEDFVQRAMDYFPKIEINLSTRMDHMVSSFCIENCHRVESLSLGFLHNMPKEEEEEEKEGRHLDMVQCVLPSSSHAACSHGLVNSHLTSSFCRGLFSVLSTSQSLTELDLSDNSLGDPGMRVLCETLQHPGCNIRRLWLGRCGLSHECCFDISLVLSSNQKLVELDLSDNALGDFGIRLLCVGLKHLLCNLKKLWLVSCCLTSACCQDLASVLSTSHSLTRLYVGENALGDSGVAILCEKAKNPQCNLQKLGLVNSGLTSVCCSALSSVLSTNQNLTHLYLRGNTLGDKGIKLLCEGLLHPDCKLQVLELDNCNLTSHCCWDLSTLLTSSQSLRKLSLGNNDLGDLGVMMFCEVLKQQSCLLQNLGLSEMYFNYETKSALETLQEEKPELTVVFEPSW
- run_description: THP-1 cells pyroptosis assay
- Format: cell-based
- Set-up: Seed THP-1 cells (25,000 cells/well) containing 1.0 μg/ml LPS; host or cells: THP-1 cells, LPS-primed, nigericin-stimulated
- experimental_context: LPS 1 μg/ml, nigericin 5 μM, resazurin read-out
pIC50: −log10 of the molar value.
measured_parameter: pIC50

Request: Recall the recorded pIC50 for O=C(Nc1c2c(cc3c1CCC3)CCC2)NS(=O)(=O)c1ccn(C2COC2)n1 [Example 12] with NLRP3 (Homo sapiens, UniProt Q96P20) and state it.
Result: 6.19 to 6.80

Request: Recall the recorded pIC50 for C[C@@H](O)Cn1ncc(S(=O)(=O)NC(=O)Nc2c3c(cc4c2CCC4)CCC3)n1 [Example 33] with NLRP3 (Homo sapiens, UniProt Q96P20) and state it.
Result: 6.19 to 6.80

Request: Recall the recorded pIC50 for Cn1nc(S(=O)(=O)NC(=O)Nc2c3c(cc4c2CCC4)CCC3)cc1C1(O)COC1 [Example 51] with NLRP3 (Homo sapiens, UniProt Q96P20) and state it.
Result: 6.80 to 7.40

Request: Recall the recorded pIC50 for COC(C)(C)Cn1ccc(S(=O)(=O)NC(=O)Nc2c3c(cc4c2CCC4)CCC3)n1 [Example 14] with NLRP3 (Homo sapiens, UniProt Q96P20) and state it.
Result: > 7.40

Request: Recall the recorded pIC50 for CC(O)C(C)n1ccc(S(=O)(=O)NC(=O)Nc2c3c(cc4c2CCC4)CCC3)n1 (racemic) [Example 26] with NLRP3 (Homo sapiens, UniProt Q96P20) and state it.
Result: 6.80 to 7.40

Request: Recall the recorded pIC50 for COCCNC(=O)c1cc(S(=O)(=O)NC(=O)Nc2c3c(cc4c2CCC4)CCC3)nn1C [Example 85] with NLRP3 (Homo sapiens, UniProt Q96P20) and state it.
Result: 5.00 to 5.59

Request: Recall the recorded pIC50 for CN(CC(O)CO)C(=O)c1cc(S(=O)(=O)NC(=O)Nc2c3c(cc4c2CCC4)CCC3)nn1C (centres unmarked) [Example 65] with NLRP3 (Homo sapiens, UniProt Q96P20) and state it.
Result: 5.59 to 6.19

Request: Recall the recorded pIC50 for COCCN(CCOC)C(=O)c1cc(S(=O)(=O)NC(=O)Nc2c3c(cc4c2CCC4)CCC3)nn1C [Example 72] with NLRP3 (Homo sapiens, UniProt Q96P20) and state it.
Result: 6.80 to 7.40

###

Exercise: state measured Vd for each of the molecules provided.
- run_description: PK protocol (intravenous and oral administration)
- Type: in vivo, male Sprague Dawley rats
- experimental_context: male, Sprague Dawley, plasma; rat, intravenous, dose 1 mg/kg; read-out: Vdss
Field format: number, assumed L/kg, no unit text.

Request: Data request, read-out Vd, for COC1(c2cc(S(=O)(=O)NC(=O)Nc3c4c(cc5c3CCC5)CCC4)nn2C(C)C)COC1
Result: 0.24

Request: Data request, read-out Vd, for COC1(c2cc(S(=O)(=O)NC(=O)Nc3c4c(cc5c3CCC5)CCC4)nn2C)CCOC1 (stereo not shown)
Result: 1.74

Request: Data request, read-out Vd, for C[C@@H](O)Cn1ccc(S(=O)(=O)NC(=O)Nc2c3c(cc4c2CCC4)CCC3)n1
Result: 0.41

Request: Data request, read-out Vd, for COCCN(C)C(=O)c1cc(S(=O)(=O)NC(=O)Nc2c3c(cc4c2CCC4)CCC3)nn1C
Result: 2.24

Request: Data request, read-out Vd, for CC(C)(O)Cn1ccc(S(=O)(=O)NC(=O)Nc2c3c(cc4c2CCC4)CCC3)n1
Result: 0.61

Request: Data request, read-out Vd, for COC1(c2cc(S(=O)(=O)NC(=O)Nc3c4c(cc5c3CCC5)CCC4)nn2C)COC1
Result: 3.48

Request: Data request, read-out Vd, for COCCn1ccc(S(=O)(=O)NC(=O)Nc2c3c(cc4c2CCC4)CCC3)n1
Result: 0.3

Request: Data request, read-out Vd, for CC(C)(O)c1coc(S(=O)(=O)NC(=O)Nc2c3c(cc4c2CCC4)CCC3)c1 [MCC950, reference compound]
Result: 0.53

Request: Data request, read-out Vd, for O=C(Nc1c2c(cc3c1CCC3)CCC2)NS(=O)(=O)c1ccn(CC2CCCO2)n1 (stereo not shown)
Result: 1.57

Request: Data request, read-out Vd, for COC1(c2cc(S(=O)(=O)NC(=O)Nc3c4c(cc5c3CCC5)CCC4)nn2C2CC2)COC1
Result: 0.35

Request: Data request, read-out Vd, for O=C(Nc1c2c(cc3c1CCC3)CCC2)NS(=O)(=O)c1ccn(C2(CO)CCC2)n1
Result: 0.37

Request: Data request, read-out Vd, for CN(CCO)Cc1cc(S(=O)(=O)NC(=O)Nc2c3c(cc4c2CCC4)CCC3)nn1C
Result: 1.9

Request: Data request, read-out Vd, for Cn1nc(S(=O)(=O)NC(=O)Nc2c3c(cc4c2CCC4)CCC3)cc1C1(O)COC1
Result: 1.18

###

- run_description: PK protocol (intravenous and oral administration)
- Assay type: in vivo, male Sprague Dawley rats
- experimental_context: male, Sprague Dawley, plasma; rat, intravenous, dose 2.88 mg/kg
measured_parameter: half-life (min)
Field format: number, assumed min, no unit text.

Request: Data request, read-out half-life, for COCCN(CCOC)C(=O)c1cc(S(=O)(=O)NC(=O)Nc2c3c(cc4c2CCC4)CCC3)nn1C
Result: 12

###

- run_description: PK protocol (intravenous and oral administration)
- Assay type: in vivo, male Sprague Dawley rats
- experimental_context: male, Sprague Dawley, plasma; rat, intravenous, dose 1 mg/kg
Criterion: AUC strictly less than 4000 ng·h/mL. Met: yes (1). Not met: no (0).

Request: Could you please tell me whether AUC recorded for O=C(Nc1c2c(cc3c1CCC3)CCC2)NS(=O)(=O)c1ccn(C2(CO)CCC2)n1 is less than 4000 ng·h/mL?
Result: no (0)

Request: Could you please tell me whether AUC recorded for CC(O)C(C)n1ccc(S(=O)(=O)NC(=O)Nc2c3c(cc4c2CCC4)CCC3)n1 (racemic) is less than 4000 ng·h/mL?
Result: no (0)

Request: Could you please tell me whether AUC recorded for COC1(c2cc(S(=O)(=O)NC(=O)Nc3c4c(cc5c3CCC5)CCC4)nn2C(C)C)COC1 is less than 4000 ng·h/mL?
Result: yes (1)

Request: Could you please tell me whether AUC recorded for O=C(Nc1c2c(cc3c1CCC3)CCC2)NS(=O)(=O)c1ccn(CC2CCCO2)n1 (centres unmarked) is less than 4000 ng·h/mL?
Result: yes (1)

Request: Could you please tell me whether AUC recorded for Cn1nc(S(=O)(=O)NC(=O)Nc2c3c(cc4c2CCC4)CCC3)cc1C1(O)COC1 is less than 4000 ng·h/mL?
Result: yes (1)

Request: Could you please tell me whether AUC recorded for COCCn1ccc(S(=O)(=O)NC(=O)Nc2c3c(cc4c2CCC4)CCC3)n1 is less than 4000 ng·h/mL?
Result: yes (1)

Request: Could you please tell me whether AUC recorded for O=C(Nc1c2c(cc3c1CCC3)CCC2)NS(=O)(=O)c1ccn(C2CCOC2)n1 (centres unmarked) is less than 4000 ng·h/mL?
Result: no (0)

Request: Could you please tell me whether AUC recorded for C[C@@H](O)Cn1ccc(S(=O)(=O)NC(=O)Nc2c3c(cc4c2CCC4)CCC3)n1 is less than 4000 ng·h/mL?
Result: no (0)

Request: Could you please tell me whether AUC recorded for CC(C)(O)c1coc(S(=O)(=O)NC(=O)Nc2c3c(cc4c2CCC4)CCC3)c1 [MCC950, reference compound] is less than 4000 ng·h/mL?
Result: yes (1)

Request: Could you please tell me whether AUC recorded for C[C@H](CO)n1ccc(S(=O)(=O)NC(=O)Nc2c3c(cc4c2CCC4)CCC3)n1 is less than 4000 ng·h/mL?
Result: no (0)

Request: Could you please tell me whether AUC recorded for CN(CCO)Cc1cc(S(=O)(=O)NC(=O)Nc2c3c(cc4c2CCC4)CCC3)nn1C is less than 4000 ng·h/mL?
Result: yes (1)

Request: Could you please tell me whether AUC recorded for CC(C)(O)Cn1ccc(S(=O)(=O)NC(=O)Nc2c3c(cc4c2CCC4)CCC3)n1 is less than 4000 ng·h/mL?
Result: no (0)

Request: Could you please tell me whether AUC recorded for COCCN(C)C(=O)c1cc(S(=O)(=O)NC(=O)Nc2c3c(cc4c2CCC4)CCC3)nn1C is less than 4000 ng·h/mL?
Result: yes (1)

Request: Could you please tell me whether AUC recorded for COC1(c2cc(S(=O)(=O)NC(=O)Nc3c4c(cc5c3CCC5)CCC4)nn2C)COC1 is less than 4000 ng·h/mL?
Result: yes (1)

Request: Could you please tell me whether AUC recorded for C[C@H](O)Cn1ccc(S(=O)(=O)NC(=O)Nc2c3c(cc4c2CCC4)CCC3)n1 is less than 4000 ng·h/mL?
Result: no (0)

Request: Could you please tell me whether AUC recorded for COC1(c2cc(S(=O)(=O)NC(=O)Nc3c4c(cc5c3CCC5)CCC4)nn2C)CCOC1 (centres unmarked) is less than 4000 ng·h/mL?
Result: yes (1)
